# Tested on: HL-60
# procedure_details: Cytotoxicity against human HL60 cells after 48 hrs by MTT assay
# Assay type: functional, cell-based
# conditions: HL-60, 48 h
pIC50: −log10 of the molar value.
experimental_endpoint: pIC50

Worked examples follow.
compound	result
C=C(C)[C@@H]1CC[C@]2(C(=O)O)CC[C@]3(C)[C@H](CC[C@@H]4[C@@]5(C)[C@H](C=O)[C@H](O)C(C)(C)[C@@H]5CC[C@]43C)[C@@H]12	< 4.40
C=C(CC[C@@H](C(=O)O)[C@H]1CC[C@H]2C3=CC[C@H]4[C@H](C)[C@@H](O[C@@H]5O[C@@H](C)[C@H](O)[C@@H](O)[C@@H]5O)[C@H](O)C[C@]4(C)[C@H]3CC[C@]12C)C(C)C [FRUTICOSIDE C]	< 4.40
C=C(CC[C@@H](C(=O)S)[C@H]1CC[C@H]2C3=CC[C@H]4[C@H](C)[C@@H](O[C@@H]5O[C@@H](C)[C@H](O)[C@@H](O)[C@@H]5O)[C@H](OC(C)=O)C[C@]4(C)[C@H]3CC[C@]12C)C(C)C [FRUTICOSIDE F]	< 4.40
C/C=C(/CC[C@@H](C(=O)S)[C@H]1CC[C@H]2C3=CC[C@H]4[C@H](C)[C@@H](O[C@@H]5O[C@@H](C)[C@H](O)[C@@H](O)[C@@H]5O)CC[C@]4(C)[C@H]3CC[C@]12C)C(C)C [FRUTICOSIDE G]	< 4.40
C=C(CC[C@@H](C(=O)O)[C@H]1CC[C@H]2C3=CC[C@H]4[C@H](C)[C@@H](O)[C@H](O)C[C@]4(C)[C@H]3CC[C@]12C)C(C)C [FRUTICOSIDE B]	< 4.40

Here is another compound to look at.
Measured pIC50 of C=C(CC[C@@H](CO)[C@H]1CC[C@H]2C3=CC[C@H]4[C@H](C)[C@@H](O)[C@H](O)C[C@]4(C)[C@H]3CC[C@]12C)C(C)C [FRUTICOSIDE A] : 5.52
